- measurement.notes: xn = mol fraction of the nth substance listed
- experimental.parameters: 303.15 K; 101 kPa; x2 = 0.4
Returns Fulfilled if the recorded viscosity is greater than or equal to 3 mPa·s, and Not fulfilled otherwise.

>  <molecule>
COc1ccccc1O + Nc1ccccc1

>  <group.label>
Fulfilled

$$$$
>  <molecule>
COc1ccccc1O + c1ccccc1

>  <group.label>
Not fulfilled

$$$$
>  <molecule>
COc1ccccc1O + Cc1ccccc1

>  <group.label>
Not fulfilled

$$$$
>  <molecule>
COc1ccccc1O + Cc1ccccc1N

>  <group.label>
Fulfilled

$$$$
>  <molecule>
COc1ccccc1O + c1ccncc1

>  <group.label>
Fulfilled

$$$$
>  <molecule>
COc1ccccc1O + CN(C)c1ccccc1

>  <group.label>
Not fulfilled

$$$$
>  <molecule>
COc1ccccc1O + CC(C)=O

>  <group.label>
Not fulfilled

$$$$
